Record form. Attribute: IC50. Fill in for each entry.
# Test system: SF-539
# Procedure summary: Growth assay (Cell Titer Glo)
# Format: cell-based
# Cond: Homo sapiens; SF-539, CNS
Please respond with the number in µM and leave the unit unwritten.

INPUT: Answer with the recorded IC50 for the molecule listed here: COC(=O)[C@H]1Cc2c([nH]c3ccccc23)[C@H](c2cc(OC)ccc2OC)N1C(=O)CCl
OUTPUT: 0.034

INPUT: Answer with the recorded IC50 for the molecule listed here: COC(=O)[C@H]1Cc2c([nH]c3ccccc23)[C@H](c2ccc(Cl)cc2Cl)N1C(=O)CCl
OUTPUT: 0.16

---

Record form. Attribute: melting point. Fill in for each entry.

INPUT: Answer with the recorded melting point for the compound listed here: COC(=O)[C@H]1Cc2c([nH]c3ccccc23)[C@@H](c2cc(OC)ccc2OC)N1C(=O)CCl [Compound 2e]
OUTPUT: 108 to 111 °C

INPUT: Answer with the recorded melting point for the compound listed here: COC(=O)C1Cc2c([nH]c3ccccc23)C(c2c(Cl)cccc2Cl)N1C(=O)CCl (stereo not shown) [Compound 2q]
OUTPUT: 147 to 150 °C

INPUT: Answer with the recorded melting point for the compound listed here: COC(=O)[C@@H]1Cc2c([nH]c3ccccc23)[C@H](c2cc(OC)ccc2OC)N1C(=O)CCl [Compound 2g]
OUTPUT: 105 to 108 °C

INPUT: Answer with the recorded melting point for the compound listed here: COC(=O)[C@@H]1Cc2c([nH]c3ccccc23)[C@H](c2c(Cl)cccc2Cl)N1 [Compound 1r]
OUTPUT: 101 to 103 °C

Hey, just so you know, these numbers are from patent US9169247B2.
